# procedureDetails: Approximate solubility of Zileuton in various solvents/vehicles
# Type: physicochemical
# measurementSetup: Poly-oxyethylene esters of 12-hydroxystearic acid, 50 °C, organic solvent or mixture, vehicle Poly-oxyethylene esters of 12-hydroxystearic acid
# Procedure: Solubility of Zileuton in Various Solvents Approximately solubility of the Zileuton was measured in different vehicles. Semi-soild and waxy solid excipients were melted and tested at 50° C. or 70° C.
parameter: solubility

Task: Look up solubility for this compound: CC(c1cc2ccccc2s1)N(O)C(N)=O (racemic)
Output: 40 to 100 mg/mL

* * *

# procedureDetails: Approximate solubility of Zileuton in various solvents/vehicles
# Format: physicochemical
# measurementSetup: 20% 2-Hydroxypropyl-β-cyclodextrin in water, 25 °C, aqueous with cosolvent or surfactant or cyclodextrin, vehicle 20% 2-Hydroxypropyl-β-cyclodextrin in water
# Procedure: Solubility of Zileuton in Various Solvents Approximately solubility of the Zileuton was measured in different vehicles. Semi-soild and waxy solid excipients were melted and tested at 50° C. or 70° C.
parameter: solubility

Task: Look up solubility for this molecule: CC(c1cc2ccccc2s1)N(O)C(N)=O (racemic)
Output: 10 to 16.7 mg/mL
